Below, each entry is listed alongside its reported pIC50.
# system: Glycogen synthase kinase-3 beta (Homo sapiens, UniProt P49841)
# Sequence (P49841 whole entry): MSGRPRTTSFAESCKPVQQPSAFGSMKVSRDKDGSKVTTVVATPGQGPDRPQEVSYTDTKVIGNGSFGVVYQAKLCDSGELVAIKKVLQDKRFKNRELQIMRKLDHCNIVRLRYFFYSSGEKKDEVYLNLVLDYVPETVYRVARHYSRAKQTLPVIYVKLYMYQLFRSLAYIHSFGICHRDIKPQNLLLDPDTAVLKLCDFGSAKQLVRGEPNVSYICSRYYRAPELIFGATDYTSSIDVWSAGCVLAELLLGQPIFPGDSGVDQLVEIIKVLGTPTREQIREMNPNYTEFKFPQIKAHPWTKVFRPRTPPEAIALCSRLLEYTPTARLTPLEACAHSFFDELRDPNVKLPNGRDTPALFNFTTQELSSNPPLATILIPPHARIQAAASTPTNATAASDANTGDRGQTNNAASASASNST
# experimentNotes: Inhibition of human recombinant GSK3beta using GSM as substrate incubated for 30 mins by luminescence based assay
pIC50: −log10 of the molar value.
measuredProperty: pIC50

O=C(CCCCCNC(=S)Nc1ccc2c(c1)C(=O)NC2=O)NO | 5.57
O=C1NC(=O)c2ccccc21 [PHTHALIMIDE] | 4.69
O=C(CCCNC(=S)Nc1ccc2c(c1)C(=O)NC2=O)NO | 5.01
O=C(CCCCNC(=S)Nc1ccc2c(c1)C(=O)NC2=O)NO | 5.39
O=C(CCNC(=S)Nc1ccc2c(c1)C(=O)NC2=O)NO | 4.70

Data provenance: ChEMBL document CHEMBL4433211
